SETTINGS: in 1,4-dioxane, 288.15 K
OBSERVABLE: solubility (mole fraction)

1. CC(=O)OC(OC(C)=O)c1ccc([N+](=O)[O-])o1: 0.109

###

SETTINGS: in acetonitrile, 288.15 K
OBSERVABLE: solubility (mole fraction)

1) CC(=O)OC(OC(C)=O)c1ccc([N+](=O)[O-])o1: 0.0028

###

SETTINGS: in acetone, 293.15 K
OBSERVABLE: solubility (mole fraction)

1) CC(=O)OC(OC(C)=O)c1ccc([N+](=O)[O-])o1: 0.156

###

SETTINGS: in acetone, 283.15 K
OBSERVABLE: solubility (mole fraction)

1. CC(=O)OC(OC(C)=O)c1ccc([N+](=O)[O-])o1: 0.108

###

SETTINGS: in toluene, 288.15 K
OBSERVABLE: solubility (mole fraction)

1. CC(=O)OC(OC(C)=O)c1ccc([N+](=O)[O-])o1: 0.171

###

SETTINGS: in methanol, 283.15 K
OBSERVABLE: solubility (mole fraction)

1) CC(=O)OC(OC(C)=O)c1ccc([N+](=O)[O-])o1: 0.0834

###

SETTINGS: in DMF, 293.15 K
OBSERVABLE: solubility (mole fraction)

1) CC(=O)OC(OC(C)=O)c1ccc([N+](=O)[O-])o1: 0.209

###

SETTINGS: in acetone, 288.15 K
OBSERVABLE: solubility (mole fraction)

1) CC(=O)OC(OC(C)=O)c1ccc([N+](=O)[O-])o1: 0.127

###

SETTINGS: in DMF, 308.15 K
OBSERVABLE: solubility (mole fraction)

1) CC(=O)OC(OC(C)=O)c1ccc([N+](=O)[O-])o1: 0.271

###

SETTINGS: in 1,4-dioxane, 298.15 K
OBSERVABLE: solubility (mole fraction)

1) CC(=O)OC(OC(C)=O)c1ccc([N+](=O)[O-])o1: 0.146

###

SETTINGS: in 1,4-dioxane, 323.15 K
OBSERVABLE: solubility (mole fraction)

1) CC(=O)OC(OC(C)=O)c1ccc([N+](=O)[O-])o1: 0.267

###

SETTINGS: in methanol, 308.15 K
OBSERVABLE: solubility (mole fraction)

1) CC(=O)OC(OC(C)=O)c1ccc([N+](=O)[O-])o1: 0.129

###

SETTINGS: in n-hexane, 323.15 K
OBSERVABLE: solubility (mole fraction)

1) CC(=O)OC(OC(C)=O)c1ccc([N+](=O)[O-])o1: 0.196

###

SETTINGS: in n-propanol, 278.15 K
OBSERVABLE: solubility (mole fraction)

1. CC(=O)OC(OC(C)=O)c1ccc([N+](=O)[O-])o1: 0.0435

###

SETTINGS: in n-propanol, 288.15 K
OBSERVABLE: solubility (mole fraction)

1. CC(=O)OC(OC(C)=O)c1ccc([N+](=O)[O-])o1: 0.0513

###

SETTINGS: in THF, 278.15 K
OBSERVABLE: solubility (mole fraction)

1) CC(=O)OC(OC(C)=O)c1ccc([N+](=O)[O-])o1: 0.121

###

SETTINGS: in n-propanol, 293.15 K
OBSERVABLE: solubility (mole fraction)

1. CC(=O)OC(OC(C)=O)c1ccc([N+](=O)[O-])o1: 0.0571

###

SETTINGS: in n-propanol, 318.15 K
OBSERVABLE: solubility (mole fraction)

1) CC(=O)OC(OC(C)=O)c1ccc([N+](=O)[O-])o1: 0.0924

###

SETTINGS: in DMF, 323.15 K
OBSERVABLE: solubility (mole fraction)

1) CC(=O)OC(OC(C)=O)c1ccc([N+](=O)[O-])o1: 0.351

###

SETTINGS: in acetonitrile, 283.15 K
OBSERVABLE: solubility (mole fraction)

1) CC(=O)OC(OC(C)=O)c1ccc([N+](=O)[O-])o1: 0.002

###

SETTINGS: in ethyl acetate, 278.15 K
OBSERVABLE: solubility (mole fraction)

1) CC(=O)OC(OC(C)=O)c1ccc([N+](=O)[O-])o1: 0.002

###

SETTINGS: in DMF, 283.15 K
OBSERVABLE: solubility (mole fraction)

1. CC(=O)OC(OC(C)=O)c1ccc([N+](=O)[O-])o1: 0.174
